Tested on: MS2 coat protein
Experiment: apparent KD of MS2 coat protein; higher = weaker reporter binding
Details: Eterna round: R107; input ligand: arginine 13.2 mM
measuredAttribute: apparent KD of MS2 coat protein (nM)
All answers are understood in nM, so give the number only.

* GGGAAAUGAAUAGAAUGAGAUGACACAGAAGGAGCGCGGAUUAACGCAGGUAGGUCGCUGACAACAUGAGGAUCACCCAUGUUUC [#10 Same State - Arginine A] | 13.7
* GGUUGGUGUAGAGAUAUAUUGAUUACUGAAGGAGCGGGAAAUAACCCAGGUAGGUCGCAGAGAUCCACAUGAGGAUCACCCAUGU [!0.K] | 30.6
* AGAAUAUAGUCGGCCGCCACUCUACAAACAUGAGGAUCACCCAUGUUCACAUAGUGGAAACACAUGAGGACCGGGACAUAGGCAU [#17 Same State - Tryptophan B] | 14
* UGGCAAGAGGGAAGGAGCGUCAGCUGAGUCACAUGAGGAUCACCCAUGUAGCACAUGGUGUGACAGGUAGGUCGCCCUCUGCCGU [SS-ArgB11] | 34.4
* UUACAUGAGGAUCACCCAUGUCAUACAGAAGGAGCGUCACAUAAGACAGGUAGGUCGCUGUUAUUUCAUACUGUUAUAUCCUCUA [JR_Nu_ExcArginiA_Sub029] | 30.1

Next:
The measured apparent KD of MS2 coat protein associated with UCGGGCAGAGCGGCCGCCACUGUUUGGCGUGCGGAUGAAGGAACAUGAGGAUCACCCAUGUUGAUUAGGACCGGGCUUGCGGAGA [kklmullin] reads 12.6

----------
System: MS2 coat protein
Experiment: apparent KD of MS2 coat protein; designed switch direction (-1 OFF switch, 1 ON switch): -1; higher = weaker reporter binding
Conditions: input ligand: microRNA oligo, concentration not stated
apparent KD of MS2 coat protein: recorded values
Please answer using the number first and the unit second.

Sample records with apparent KD of MS2 coat protein:
- UCAAUUUUGCGAGGAUAUCGACCAUUCCUCUUUACAUGAGGAUCACCCAUGUUCUUUUUCUACAACGAGAAGGCGCUCAUAGUU [JR_ExcNG2_Sub063] (Eterna round: R96, puzzle: Exclusion NG 2): 56.2 nM
- UAUAUAUAGUAAGGAUAUGUAAUUAUAUUAUAAACAGAAGGUACUGACAUGAGGAUCACCCAUGUUUUAGUGUGGGCAUGUAGA [JMF's solution 38] (Eterna round: R96, puzzle: Exclusion NG 1): 60.1 nM
- ACUGACAUGAGGAUCACCCAUGUAGAUGUGUUCGCAAGCCUCUAGGAUAUAUCUAACCUACCCGGAUAGAAGGAGAGGUUCCCU [Eternabot solution 9] (Eterna round: R96, puzzle: Exclusion NG 3): 21.1 nM
- CUAGCGAGUGUAGGAUAUCGGACUGUUUCAGUCUGAGAAGGACAUGAGGAUCACCCAUGUAUUGCUACGUGAGUAGCACGCUAG [JL ENG1 3.00] (Eterna round: R96, puzzle: Exclusion NG 1): 17.5 nM

Documented apparent KD of MS2 coat protein of CUCCGGCGUGUAGGAUAUGGUUCCGUUUCGGUUCCAGAAGGACAUGAGGAUCACCCAUGUGCCUGUCGUCGGUCGUCACCGGGC [salish99_ExNG1_r04_217] (Eterna round: R96, puzzle: Exclusion NG 1) : 10.3 nM

----------
Test system: MS2 coat protein
Test: apparent KD of MS2 coat protein; designed switch direction (-1 OFF switch, 1 ON switch): 1; higher = weaker reporter binding
Conditions: Eterna round: R95; input ligand: microRNA oligo, concentration not stated
measuredAttribute: apparent KD of MS2 coat protein (nM)
Report only the number, with the unit nM understood.

Here are 4 sequences together with their reported answers.
• GGCAGGUGCAGGCUUGCUUGCACCUGGAGACAUGAGGAUCACCCAUGUUUGGGACAAGCUUUGCUCUUCGUCUUUUC [JL ViennaUCT Isusreraar mod 6] (puzzle: Sensor for hsa-mir-208a) = 105
• AGAGAACAUGAGGAUCACCCAUGUGGGAGAUGCAUAGGAUAUAGGAGAGAGAGCGAGGAACUAGAAGGAUGAUGGA [JR_SS1_Sub081] (puzzle: Same State 1) = 63.7
• UUUAGUUGCGGGCAGGAUAUGUAUUAAAAUACAUGAGGAUCACCCAUGUGAGACCGAAAAGGUCUACAGAAGGGCCAAUCGCGAC [Laonerce - 20] (puzzle: Same State 2) = 66
• AGUCCAGCCUGAGCUGGACAAAAGCAUGUACAUGAGGAUCACCCAUGUUCAUGUACAAGCUUUUUGCUCGAAUUAAA [Mat - hsa-mir-208a - Mod of JL - 53] (puzzle: Sensor for hsa-mir-208a) = 15.4

Okay, next one:
Notebook: UCUUGGUUUUUGCUCGUUUUUUGUGUUGAACAUGAGGAUCACCCAUGUAUUGUACGGUCCAAUUUAGUGGUAGUCCG [JMF 67] (puzzle: Sensor for hsa-mir-208a) , apparent KD of MS2 coat protein read as 25.3

----------
Reported apparent KD of MS2 coat protein values follow for various sequences
System: MS2 coat protein
Assay: apparent KD of MS2 coat protein; designed switch direction (-1 OFF switch, 1 ON switch): 1; higher = weaker reporter binding
Conditions: Eterna round: R95; input ligand: FMN 200 uM
Lab book: enter the figure in nM, no units written.

- GAUAAACAUGAGGAUCACCCAUGUAAUAAUAUGGGAGGAUAUCAGAAUGUAUGUAUGUAAUGAGAAGGCCUAAAUG [Mat - Same State 1 - Mod of Eli - D73] (puzzle: Same State 1): 104

Data point: GUUAAACAUGAGGAUCACCCAUGUAAUAUAAUGGGAGGAUAUCUGAAUUAAUUAAAUUAAGGAGAAGGCCUAAUGG [Mat - Same State 1 - Mod of Eli - D51] (puzzle: Same State 1) ; apparent KD of MS2 coat protein = 83.3

According to the records, this sequence GGUCCAGCCUGAGCUGGACAAAAGCAUGUACAUGAGGAUCACCCAUGUUCAUGUACAAGCUUUUUGCUCGUCUUAAU [salish99_208a_r3_036] (puzzle: Sensor for hsa-mir-208a) displays apparent KD of MS2 coat protein of 525

----------
Test system: MS2 coat protein
Assay: apparent KD of MS2 coat protein; designed switch direction (-1 OFF switch, 1 ON switch): -1; higher = weaker reporter binding
Details: Eterna round: R95; input ligand: microRNA oligo, concentration not stated
Returns one of yes (1) or no (0); yes (1) when apparent KD of MS2 coat protein is >= 50 nM.

* GCGAAAACAAGCAAGUGAAACAUGAGGAUCACCCAUGUCCUCAUUUGCUCGUCUUAUAAAAGCUAUCGAAAGAUAGC [Mat - Sensor v3 - turn-off var 1 - Eli Mod - D49] (puzzle: Sensor v3, turn-off variant 1) | yes (1)
* CUAUUCCGAGGAUAUACAUGAGGAUCACCCAUGUCGGGCCUCUGGCCUAAGGCCGAAAGUAGAAGGUGGGUUUC [JL Riri mod 10] (puzzle: Exclusion 3) | yes (1)
* AACCGGCGGACCGAAGCUUUUUGCUUGUUUUAUACUACAACAUGAGGAUCACCCAUGUGGUGGUGGUCCGUUGUAGA [Bitein] (puzzle: Sensor v3, turn-off variant 2) | no (0)

Quick check, apparent KD of MS2 coat protein >= 50 nM? AGCGAGCUAGGAUAUACAUGAGGAUCACCCAUGUCUUUUUAGUACUACGGUGGAAGAUGUAGAAGGAGUGAGAA [Soisza] (puzzle: Exclusion 3) yes (1)

Check the entry GAAUAGGCAGGAUAUACAUGAGGAUCACCCAUGUGCAACCGAAAGGAACGUCCGAAAGGUAGAAGGGCCUAAAC [ChP 13.04.2015 #9] (puzzle: Exclusion 3) : does apparent KD of MS2 coat protein equal or exceed 50 nM? no (0)

----------
Below, each of the sequences is paired with its reported apparent KD of MS2 coat protein value.
Test system: MS2 coat protein
Assay: apparent KD of MS2 coat protein; designed switch direction (-1 OFF switch, 1 ON switch): -1; higher = weaker reporter binding
Details: input ligand: FMN 200 uM
Dear colleague, please send the value followed by its unit.

Some entries whose results are on file:
- GUCACAUGGACAUAGGAUCACAUGAGGAUCACCCAUGUGACUAACAAGCUUUUUGCUCGUCUUAUGUCUAUGUGAAU [Stov1/16-A2] (Eterna round: R97, puzzle: Sensor, turn-off variant 1): 14 nM
- AGUUAUUCAGGAUAUGGUGUGUUAUACAUGAGGAUCACCCAUGUGGGUCCUGGUUUGGCCUCAGAAGGGAAUGUUA [salish99_ex5_r4_123] (Eterna round: R97, puzzle: Exclusion 5): 507 nM
- ACAUGAGGAUCACCCAUGUUUGGCUGGUUUUCUCCGGCUGUCGAGGAUAUAGUACGGUAUCCGCGCUAGAAGGUGAGGGCCGGC [Aenatbe mod 1] (Eterna round: R96, puzzle: Exclusion NG 3): 15.5 nM
- AAUAACAAGCCGAUCCUUCACAUGAGGAUCACCCAUGUGCUCGUCUUGUAAAGUACUAUCACGAAAGUGAUAGUACA (Eterna round: R97, puzzle: Sensor, turn-off variant 1): 22.6 nM
- GGAGUUAGAGAGGAUAUGGAGGAGAGGCCAAUUCCAGAAGGUUCAACAUGAGGAUCACCCAUGUAUUUUCCUCA [AK-MS2ROC-r4-exclusion6-2] (Eterna round: R97, puzzle: Exclusion 6): 25.6 nM
- GGAUAUAGGCGAGGAUAUACGCACCACUAACUAGUAGAAGGCGCACAUGAGGAUCACCCAUGUGAUUUCUCAAUAUGAUACACG [Prohibition 71 - Jieux - Exclusion NG 1] (Eterna round: R96, puzzle: Exclusion NG 1): 218 nM

sequence UCACGGGACUAAGGAUAUAUGAGAGCCAUUAACAUAGAAGGUAGAAUGUUAGAUCAUAAACUAAACAUGAGGAUCACCCAUGUU [JR_ExcNG1_Sub093] (Eterna round: R96, puzzle: Exclusion NG 1) , apparent KD of MS2 coat protein observed: 19.6 nM

Memo: UAUCAUCAUGUAGGAUAUGCGUGGCAAAGCUAUGCAGAAGGACAUGAGGAUCACCCAUGUUCUAGCGUCUGAGUACAGAUGCUA [Mat - Exclusion NG 1 - Mod of JL - D75] (Eterna round: R96, puzzle: Exclusion NG 1) , reported apparent KD of MS2 coat protein: 278 nM

apparent KD of MS2 coat protein measured on GUGCAAUGAGGAUAUACGUUGGUGAACAUCUGUGUGCUCCUACAUGAGGAUCACCCAUGUAGAAGGCAUGUCAC [LRO-Excl2-18] (Eterna round: R96, puzzle: Exclusion 2) = 18.3 nM
